System: BJ-TERT cells
Assay: Calcein AM viability assay, dilution-series retest
Format: cell-based
Settings: Homo sapiens, 48 h, read-out: IC50, BJ-TERT
Reported IC50 values for the following molecules.
Just the number in µg/mL, nothing appended.

Data request: Return reported IC50; argument: "NC(=O)c1cn([C@@H]2O[C@H](CO)[C@@H](O)[C@H]2O)c2ncnc(N)c12"
Data returned: 0.039

Data request: Recorded IC50 for "COc1cccc2c1C(=O)c1c(O)c3c(c(O)c1C2=O)C[C@@](O)(C(C)=O)C[C@@H]3O[C@H]1C[C@H](N)[C@H](O)[C@H](C)O1" , please?
Data returned: 1.25

Data request: Dear colleague, I am looking for the recorded IC50 of the following molecule: "COc1ccc(C[C@H]2C(=O)N[C@@H](C)C(=O)N(C)[C@@H]3C(=O)N(C)[C@@H](Cc4ccc(O)c(c4)Oc4ccc(cc4)[C@@H]3O)C(=O)N[C@H](C)C(=O)N[C@@H](C)C(=O)N2C)cc1"
Data returned: 0.078

Now for another entry.
Data request: Give the measured IC50 of "CS[C@H]1SC[C@H]2C(=O)N(C)[C@@H](C(C)C)C(=O)OC[C@@H](NC(=O)c3cnc4ccccc4n3)C(=O)N[C@@H](C)C(=O)N(C)[C@@H]1C(=O)N(C)[C@@H](C(C)C)C(=O)OC[C@@H](NC(=O)c1cnc3ccccc3n1)C(=O)N[C@@H](C)C(=O)N2C" .
Data returned: 0.312

---

Tested on: TIP5/TERT/LT/ST/RAS^V12 cells
Test: Calcein AM viability assay, dilution-series retest
Type: cell-based, human
Settings: Homo sapiens, 48 h; TIP5 TERT/LT/ST/Ras^V12 cells; 16-point two-fold dilution; two days; read-out: IC50, TIP5 TERT/LT/ST/Ras^V12
EXPERIMENTAL_ENDPOINT: IC50
Quick note: number first, unit second.

Take a look at these entries with their results.
Data request: Please look up its IC50: "COc1cccc2c1C(=O)c1c(O)c3c(c(O)c1C2=O)C[C@@](O)(C(=O)CO)C[C@@H]3O[C@H]1C[C@H](N)[C@H](O)[C@H](C)O1"
Data returned: 0.625 µg/mL

Data request: For the molecule shown here, "CC[C@@]1(O)C(=O)OCc2c1cc1n(c2=O)Cc2cc3ccccc3nc2-1" , give the reported IC50.
Data returned: 0.156 µg/mL

Data request: Quick check: IC50 of "O=C1c2c(O)ccc(O)c2C(=O)c2c(NCCNCCO)ccc(NCCNCCO)c21" ?
Data returned: 1.25 µg/mL

Further cases:
Data request: What value of measured IC50 is listed for CCOc1ccccc1-n1c(C(C)N2CCN(C(=O)COc3ccc(Cl)cc3)CC2)nc2ccccc2c1=O (stereo not shown) ?
Data returned: 2.5 µg/mL

---

Test system: TIP5/TERT/LT/ST/RAS^V12 cells
Assay: Calcein AM viability assay, dilution-series retest
Format: cell-based, human
Settings: Homo sapiens, 48 h, read-out: IC50, TIP5 TERT/LT/ST/Ras^V12
EXPERIMENTAL_ENDPOINT: IC50 (µg/mL)
Kindly answer with a numeric value in µg/mL, unit omitted.

Here's what some known entries look like.
Data request: Entry "CS[C@H]1SC[C@H]2C(=O)N(C)[C@@H](C(C)C)C(=O)OC[C@@H](NC(=O)c3cnc4ccccc4n3)C(=O)N[C@@H](C)C(=O)N(C)[C@@H]1C(=O)N(C)[C@@H](C(C)C)C(=O)OC[C@@H](NC(=O)c1cnc3ccccc3n1)C(=O)N[C@@H](C)C(=O)N2C" : reported IC50 = ?
Data returned: 0.0024

Data request: If you can, please state the reported IC50 value of "COc1ccc(C[C@H]2C(=O)N[C@@H](C)C(=O)N(C)[C@@H]3C(=O)N(C)[C@@H](Cc4ccc(O)c(c4)Oc4ccc(cc4)[C@@H]3O)C(=O)N[C@H](C)C(=O)N[C@@H](C)C(=O)N2C)cc1" .
Data returned: 0.039

Further cases:
Data request: // IC50 lookup, key: "COc1cccc2c1C(=O)c1c(O)c3c(c(O)c1C2=O)C[C@@](O)(C(C)=O)C[C@@H]3O[C@H]1C[C@H](N)[C@H](O)[C@H](C)O1"
Data returned: 0.825

Data request: Data request, read-out IC50, for "NC(=O)c1cn([C@@H]2O[C@H](CO)[C@@H](O)[C@H]2O)c2ncnc(N)c12"
Data returned: 0.078
